- TARGET_UNDER_TEST: human melanocortin-3 (MC-3) receptor (human, UniProt P41968)
- PROTOCOL_TEXT: displacement of 125I-AGRP, membranes of HEK 293 cells with hMC3 (value column 4)
Square brackets hold non-standard residues; d marks the D form. Ends that are not written are not given here. Abu = CC[C@H](N)C(=O)O
READOUT_LABEL: IC50

1) RNS[Abu]KPPAPAC[Abu]DP[Abu]AS[Abu]QCRFFRSACSCRVL (disulfide (positions not given here)) [peptide of SEQ ID NO:15] ... > 1000 nM

Kindly review the next binder as well.
Query: Given the entry RNSCKPPAPAC[Abu]DP[Abu]ASCQCRFFRSACSCRVL (disulfide (positions not given here); not fully specified (bridges); printed as Arg-Asn-Ser-Cys-Lys-Pro-Pro-Ala-Pro-Ala-Cys-Abu-Asp-Pro-Abu-Ala-Ser-Cys-Gln-Cys-Arg-Phe-Phe-Arg-Ser-Ala-Cys-Ser-Cys-Arg-Val-Leu; also: three disulfides, pairing not given here) [peptide of SEQ ID NO:13] , report its measured IC50.
Reply: > 1000 nM
